Data origin: patent US11760751B2

Reported half-life is given for each of the following compounds.
assay: Pharmacokinetic evaluation in CD-1 mice (intravenous and oral); assay type: in vivo; settings: male, mouse, plasma, oral administration 2.0 mg/kg, read-out: Half-life T1/2 (PO) (converted)
Where a name gives a salt, the structure may show the parent alone.
assay.readout: half-life (h)

• CC(C)Oc1ncc(-c2nc(-c3cccc4c3CCC43CCN(C(=O)CO)C3)no2)cc1C#N (stereo not drawn) [Compound 8] = 2.9
• CC(C)Oc1ccc(-c2nc(-c3cccc4c3CCC43CCN(CC4(C(=O)O)CC4)C3)no2)cc1C#N (stereo not drawn) [Hydrochloride of compound 22] = 3.66
• CC(C)Oc1ccc(-c2nc(-c3cccc4c3CCC43CCN(C(=O)CO)C3)no2)cc1C#N (stereo not drawn) [Compound 1] = 3.61
